For each of the compounds below, state its Lethal dose.
procedureSummary: Lethal dose defined as as the lowest dose resulting in the death of a single mouse
Type: toxicity
studyConditions: in vivo
The reply should contain only the number, in mg/kg.

Let me know recorded Lethal dose for C[C@@H](O)[C@H]1C(=O)N2C(C(=O)O)=C(CN3c4cccc5c(C[N+]67CC[N+](CC(N)=O)(CC6)CC7)ccc(c45)S3(=O)=O)[C@H](C)[C@H]12.[Cl-].[Cl-] , thanks.
500

Let me know recorded Lethal dose for C[C@@H](O)[C@H]1C(=O)N2C(C(=O)O)=C(CN3c4cccc5c(CC[N+]67CC[N+](Cc8ccccc8)(CC6)CC7)ccc(c45)S3(=O)=O)[C@H](C)[C@H]12.[Cl-].[Cl-] , thanks.
250

Let me know recorded Lethal dose for C[C@@H](O)[C@H]1C(=O)N2C(C(=O)O)=C(CN3c4cccc5ccc(CC[N+]67CC[N+](CC(N)=O)(CC6)CC7)c(c45)S3(=O)=O)[C@H](C)[C@H]12.[Cl-].[Cl-] , thanks.
63

Let me know recorded Lethal dose for C[C@@H](O)[C@H]1C(=O)N2C(C(=O)O)=C(CN3c4cccc5c(CC[N+]67CC[N+](CC(=O)Nc8ccccc8)(CC6)CC7)ccc(c45)S3(=O)=O)[C@H](C)[C@H]12.[Cl-].[Cl-] , thanks.
63

Let me know recorded Lethal dose for C[C@@H](O)[C@H]1C(=O)N2C(C(=O)O)=C(CN3c4cccc5cc(CC[N+]67CC[N+](CC(N)=O)(CC6)CC7)cc(c45)S3(=O)=O)[C@H](C)[C@H]12.[Cl-].[Cl-] , thanks.
500
